assay_remarks: self-splicing fitness, log relative to wild type (ln ratio); higher = more splicing; Tetrahymena group I intron in knt gene, E. coli kanamycin selection, DiMSum; sequences stand for … in CUCUCU…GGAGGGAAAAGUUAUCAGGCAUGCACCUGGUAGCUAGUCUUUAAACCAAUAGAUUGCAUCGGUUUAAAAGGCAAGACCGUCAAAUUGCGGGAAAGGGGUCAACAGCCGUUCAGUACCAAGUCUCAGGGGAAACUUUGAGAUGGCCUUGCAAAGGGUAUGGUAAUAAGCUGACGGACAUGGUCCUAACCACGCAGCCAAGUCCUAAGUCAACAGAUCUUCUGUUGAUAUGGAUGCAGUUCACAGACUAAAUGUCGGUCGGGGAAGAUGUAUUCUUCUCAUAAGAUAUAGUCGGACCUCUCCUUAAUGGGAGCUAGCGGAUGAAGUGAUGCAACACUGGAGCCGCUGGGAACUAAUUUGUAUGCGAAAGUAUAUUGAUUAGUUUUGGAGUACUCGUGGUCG;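 note: selection with 25 µg/mL kanamycin versus none on LB agar overnight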
protocol_conditions: 37 °C
# self-splicing fitness (ln) values compiled below
experimental_readout: self-splicing fitness (ln)

> print(dat)
      construct.sequence        experimental.readout  reading
 1  CCUAAGCAAUAUUACGAAAA  self-splicing fitness (ln)    -2.44
 2  CCGGAGCAAUAUUACGGGGU  self-splicing fitness (ln)    -2.93
 3  AGUCAGCAAUAUUACGUACG  self-splicing fitness (ln)  -0.0481
 4  GGAGAGCAAUAUUACGUUAG  self-splicing fitness (ln)    -1.54
 5  UUCAAGCAAUAUUACGAGAG  self-splicing fitness (ln)    -1.34
 6  GUUAAGCAAUAUUACGAACA  self-splicing fitness (ln)    -1.32
 7  UACCAGCAAUAUUACGUCCG  self-splicing fitness (ln)  -0.0389
 8  CUGUAGCAAUAUUACGGUCC  self-splicing fitness (ln)    -2.71
 9  ACAGAGCAAUAUUACGAACA  self-splicing fitness (ln)    -2.67
10  AUAGAGCAAUAUUACGGGAU  self-splicing fitness (ln)    -1.87
11  UGGCAGCAAUAUUACGUAAA  self-splicing fitness (ln)   -0.922
12  CUGAAGCAAUAUUACGAAAG  self-splicing fitness (ln)  -0.0848
13  GUAAAGCAAUAUUACGAUUG  self-splicing fitness (ln)   -0.942
14  CCCGAGCAAUAUUACGGAUU  self-splicing fitness (ln)    -2.55
15  UUACAGCAAUAUUACGUCCC  self-splicing fitness (ln)    -1.31
16  GCUUAGCAAUAUUACGGGGA  self-splicing fitness (ln)   -0.712
17  GCGGAGCAAUAUUACGUACU  self-splicing fitness (ln)    -1.46
18  UUGGAGCAAUAUUACGCCUG  self-splicing fitness (ln)     -1.2
19  AGUUAGCAAUAUUACGGUGU  self-splicing fitness (ln)    -1.73
20  UAUGAGCAAUAUUACGCGUU  self-splicing fitness (ln)    -1.79
21  CCUCAGCAAUAUUACGUCUA  self-splicing fitness (ln)    -2.46
22  UGACAGCAAUAUUACGGGUC  self-splicing fitness (ln)    -2.94
23  CGAGAGCAAUAUUACGCAGA  self-splicing fitness (ln)    -1.94
24  GGAAAGCAAUAUUACGAAUU  self-splicing fitness (ln)     -1.4
25  AGAGAGCAAUAUUACGCGGA  self-splicing fitness (ln)    -2.21
26  UUACAGCAAUAUUACGUCAC  self-splicing fitness (ln)     -1.8
27  UUACAGCAAUAUUACGACCC  self-splicing fitness (ln)    -2.14
28  GUAAAGCAAUAUUACGACUA  self-splicing fitness (ln)   -0.957
29  UUCAAGCAAUAUUACGAUCG  self-splicing fitness (ln)     -2.3
30  GGAGAGCAAUAUUACGUCGU  self-splicing fitness (ln)     -2.5
31  ACCUAGCAAUAUUACGUCCA  self-splicing fitness (ln)   -0.615
32  ACCUAGCAAUAUUACGAAGA  self-splicing fitness (ln)    -1.77
33  GGGCAGCAAUAUUACGGUGG  self-splicing fitness (ln)    -1.86
34  UUAUAGCAAUAUUACGAUGU  self-splicing fitness (ln)    -1.57
35  UGUCAGCAAUAUUACGCCCA  self-splicing fitness (ln)    0.348
36  GCGCAGCAAUAUUACGCACC  self-splicing fitness (ln)    -2.41
37  GUCUAGCAAUAUUACGCAUU  self-splicing fitness (ln)    0.379
38  GCCUAGCAAUAUUACGACCU  self-splicing fitness (ln)    -1.02
39  GUUAAGCAAUAUUACGAGGA  self-splicing fitness (ln)    -1.15
40  UGUCAGCAAUAUUACGUUCC  self-splicing fitness (ln)    -0.73
41  UACUAGCAAUAUUACGUUCA  self-splicing fitness (ln)   -0.193
